- System: 485176-168-R4-J1-PDC complex spheroid growth;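 also: spheroids exposed to compounds for seven days before readout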
- Experiment description: Anticancer human tumor 485176-168-R4-J1-PDC patient-derived pancreatic adenocarcinoma cell line growth inhibition [RAS]
- Experimental setup: second compound 0.0316 µM; first compound 10 µM; stronger effect = lower value
Rule for this label: y means viability, T/C is less than 40%; n means viability, T/C is at least 40%.

>>> label_class("CC(C)NCC(C(=O)N1CCN(c2ncnc3c2C(C)CC3O)CC1)c1ccc(Cl)cc1 (stereo not given) + C#Cc1c(F)ccc2cc(O)cc(-c3ncc4c(N5CC6CCC(C5)N6)nc(OCC56CCCN5CC(F)C6)nc4c3F)c12")
"y"
>>> label_class("Cc1nc(N2CCC3(CC2)COC(C)C3N)c(CO)nc1Sc1ccnc(N)c1Cl (stereo not given) + C#Cc1c(F)ccc2cc(O)cc(-c3ncc4c(N5CC6CCC(C5)N6)nc(OCC56CCCN5CC(F)C6)nc4c3F)c12")
"n"
>>> label_class("Cc1nc(N2CCC3(CC2)COC(C)C3N)c(CO)nc1Sc1ccnc(N)c1Cl (stereo not given) + C=CC(=O)N1CCN(c2nc(OCC3CCCN3C)nc3c(F)c(-c4nc(N)cc(C)c4C(F)(F)F)c(Cl)cc23)C(C)C1")
"n"
>>> label_class("CCC(CC)c1cc(NC2CCC(N)C2)n2nccc2n1 (stereo not given) + C#Cc1c(F)ccc2cc(O)cc(-c3ncc4c(N5CC6CCC(C5)N6)nc(OCC56CCCN5CC(F)C6)nc4c3F)c12")
"y"
>>> label_class("NC1c2ccccc2OC12CCN(c1cnc3c(N4CCCc5ncccc54)n[nH]c3n1)CC2 (stereo not given) + C=CC(=O)N1CCN(c2nc(OCC3CCCN3C)nc3c(F)c(-c4nc(N)cc(C)c4C(F)(F)F)c(Cl)cc23)C(C)C1")
"n"

The reported numbers originate from PubChem BioAssay AID2060906.
